src = paper PMC12136037

Target: ~100 representative kinases (Homo sapiens)
Construct: Recombinant protein kinase domains with a concentration of 2 μM
Sequence (P16083 1-231): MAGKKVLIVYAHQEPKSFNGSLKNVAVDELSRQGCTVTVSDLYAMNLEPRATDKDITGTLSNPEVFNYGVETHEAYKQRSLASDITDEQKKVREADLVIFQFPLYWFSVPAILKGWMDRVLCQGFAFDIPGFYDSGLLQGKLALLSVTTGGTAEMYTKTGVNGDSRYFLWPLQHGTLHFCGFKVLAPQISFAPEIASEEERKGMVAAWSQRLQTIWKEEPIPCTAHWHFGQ
Assay: DSF 100 kinase selectivity screen;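 note: compound tested at 20 µM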
Type: binding
Details: protein NQO2; average of three replicates
Quick rule for you: dTm under -0.01 K gets Condition met, anything else gets Condition not met.

> print(dat)
                                   compound     category.label
1  CC(C)(C)c1cccc(NC(=O)C2(C(=O)Nc3cccc(-c4c[nH]c5ncnc(N6CCOCC6)c45)c3)CC2)c1      Condition met
2  CNC(=O)c1cc(Oc2ccc(NC(=O)Nc3cc(C(C)(C)C)nn3-c3ccc4ncccc4c3)c(F)c2)ccn1 [Rebastinib, reference compound]      Condition met
3  O=C(Nc1cccc(-c2c[nH]c3ncnc(N4CCOCC4)c23)c1)C1(C(=O)Nc2cccc3c2CCC3)CC1      Condition met
4  CCSc1nc(NC)c2c(-c3cccc(NC(=O)Nc4cc(C(C)(C)C)nn4-c4ccc(C)cc4)c3)c[nH]c2n1      Condition met
5  COc1cc2c(Oc3ccc(NC(=O)C4(C(=O)Nc5ccc(F)cc5)CC4)cc3F)ccnc2cc1OCCCN1CCOCC1 [Foretinib, reference compound]  Condition not met

# check: dTm < -0.01 K for Cc1ccc(NC(=O)C2(C(=O)Nc3cccc(-c4c[nH]c5ncnc(N6CCOCC6)c45)c3)CC2)cc1
Condition not met

Does Cc1ccc(-n2nc(C(C)(C)C)cc2NC(=O)Nc2cccc(-c3c[nH]c4ncnc(N5CCOCC5)c34)c2)cc1 have dTm strictly under -0.01 K?
Condition met

Is it true that dTm reported for O=C(Nc1cccc(-c2c[nH]c3ncnc(N4CCOCC4)c23)c1)C1(C(=O)Nc2cc(Br)c(F)cc2F)CC1 is less than -0.01 K?
Condition met

---

Can you tell me dTm for the items I'm about to list?
Target: ~100 representative kinases (Homo sapiens)
Construct: Recombinant protein kinase domains with a concentration of 2 μM
Experiment: DSF 100 kinase selectivity screen;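 note: compound tested at 20 µM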
Type: binding
Settings: protein PAK4; average of three replicates
Numbers only, in K.

// input: 2 molecules below; output: dTm for each
1. O=C(Nc1ccc(Cl)cc1)C1(C(=O)Nc2cccc(-c3c[nH]c4ncnc(N5CCOCC5)c34)c2)CC1
2. CCSc1nc(NC)c2c(-c3cccc(NC(=O)Nc4cc(C(C)(C)C)nn4-c4ccc(C)cc4)c3)c[nH]c2n1

[1.17, 0.61]

For every listed record, write down its dTm.
1. COc1cc(C(=O)N2CCOCC2)c(F)cc1Nc1nc(N(C)C)c2c(Cl)c[nH]c2n1
2. O=C(Nc1cccc(-c2c[nH]c3ncnc(N4CCOCC4)c23)c1)C1(C(=O)Nc2ccc(F)c(Br)c2F)CC1
3. O=C(Nc1cccc(-c2c[nH]c3ncnc(N4CCOCC4)c23)c1)C1(C(=O)Nc2cc(Br)c(F)cc2F)CC1
4. O=C(Nc1cccc(-c2c[nH]c3ncnc(N4CCOCC4)c23)c1)C1(C(=O)Nc2cccc3c2CCC3)CC1

[-0.14, 0.78, 0.88, 0.55]

---

I'd appreciate it if you could supply dTm values for the items below.
Biological target: ~100 representative kinases (Homo sapiens, UniProt O94804)
Construct: Recombinant protein kinase domains with a concentration of 2 μM
Sequence (O94804 whole entry, the tested form may be a part): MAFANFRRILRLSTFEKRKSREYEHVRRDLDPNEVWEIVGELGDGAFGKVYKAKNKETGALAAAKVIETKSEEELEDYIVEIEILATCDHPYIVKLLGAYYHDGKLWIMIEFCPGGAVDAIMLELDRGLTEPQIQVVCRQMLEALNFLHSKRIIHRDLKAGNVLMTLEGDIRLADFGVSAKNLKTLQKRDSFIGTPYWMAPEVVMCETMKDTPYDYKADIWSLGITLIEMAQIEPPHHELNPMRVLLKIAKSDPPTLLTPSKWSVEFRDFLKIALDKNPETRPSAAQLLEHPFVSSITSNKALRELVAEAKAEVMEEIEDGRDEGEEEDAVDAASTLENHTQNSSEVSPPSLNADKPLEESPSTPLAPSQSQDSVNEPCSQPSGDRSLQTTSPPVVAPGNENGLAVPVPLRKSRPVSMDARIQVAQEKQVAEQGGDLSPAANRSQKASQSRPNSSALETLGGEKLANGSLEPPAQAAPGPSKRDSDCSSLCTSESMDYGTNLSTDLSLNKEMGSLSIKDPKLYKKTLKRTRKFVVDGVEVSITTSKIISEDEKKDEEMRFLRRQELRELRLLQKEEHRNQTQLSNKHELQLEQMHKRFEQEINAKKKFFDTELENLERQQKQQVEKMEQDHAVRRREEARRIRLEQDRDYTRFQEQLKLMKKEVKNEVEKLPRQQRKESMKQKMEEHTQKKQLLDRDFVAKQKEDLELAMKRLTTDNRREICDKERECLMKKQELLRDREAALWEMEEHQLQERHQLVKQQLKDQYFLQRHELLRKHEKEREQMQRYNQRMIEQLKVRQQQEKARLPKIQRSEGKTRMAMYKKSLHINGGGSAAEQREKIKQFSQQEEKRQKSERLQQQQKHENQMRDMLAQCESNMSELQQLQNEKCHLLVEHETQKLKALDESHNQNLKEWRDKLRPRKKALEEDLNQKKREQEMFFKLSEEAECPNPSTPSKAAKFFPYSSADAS
Experiment: DSF 100 kinase selectivity screen;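 note: compound tested at 20 µM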
Format: binding
Details: Protein STK10; DSF; average of three replicates
Answers are plain numbers, in K.

> print(dat)
                                   compound  observation.type  result
1  CC(C)(C)c1cccc(NC(=O)C2(C(=O)Nc3cccc(-c4c[nH]c5ncnc(N6CCOCC6)c45)c3)CC2)c1               dTm   15.18

Dear colleague, could you send me dTm for each of the items below? Thanks.
1. O=C(Nc1cccc(-c2c[nH]c3ncnc(N4CCOCC4)c23)c1)C1(C(=O)Nc2cc(Br)c(F)cc2F)CC1
2. CCNc1nc(Nc2cc(F)c(C(=O)N3CCOCC3)cc2OC)ncc1C(F)(F)F
3. COc1cc2c(Oc3ccc(NC(=O)C4(C(=O)Nc5ccc(F)cc5)CC4)cc3F)ccnc2cc1OCCCN1CCOCC1 [Foretinib, reference compound]
4. O=C(Nc1cccc(-c2c[nH]c3ncnc(N4CCOCC4)c23)c1)C1(C(=O)Nc2ccc(F)c(Cl)c2)CC1
5. Cc1cc(NC(=O)C2(C(=O)Nc3ccc(F)cc3)CC2)cc(-c2c[nH]c3ncnc(N4CCOCC4)c23)c1

11.10
-0.11
16.81
15.34
11.03

---

Target: ~100 representative kinases (Homo sapiens, UniProt Q9H4A3)
Construct: Recombinant protein kinase domains with a concentration of 2 μM
Sequence (Q9H4A3 whole entry, the tested form may be a part): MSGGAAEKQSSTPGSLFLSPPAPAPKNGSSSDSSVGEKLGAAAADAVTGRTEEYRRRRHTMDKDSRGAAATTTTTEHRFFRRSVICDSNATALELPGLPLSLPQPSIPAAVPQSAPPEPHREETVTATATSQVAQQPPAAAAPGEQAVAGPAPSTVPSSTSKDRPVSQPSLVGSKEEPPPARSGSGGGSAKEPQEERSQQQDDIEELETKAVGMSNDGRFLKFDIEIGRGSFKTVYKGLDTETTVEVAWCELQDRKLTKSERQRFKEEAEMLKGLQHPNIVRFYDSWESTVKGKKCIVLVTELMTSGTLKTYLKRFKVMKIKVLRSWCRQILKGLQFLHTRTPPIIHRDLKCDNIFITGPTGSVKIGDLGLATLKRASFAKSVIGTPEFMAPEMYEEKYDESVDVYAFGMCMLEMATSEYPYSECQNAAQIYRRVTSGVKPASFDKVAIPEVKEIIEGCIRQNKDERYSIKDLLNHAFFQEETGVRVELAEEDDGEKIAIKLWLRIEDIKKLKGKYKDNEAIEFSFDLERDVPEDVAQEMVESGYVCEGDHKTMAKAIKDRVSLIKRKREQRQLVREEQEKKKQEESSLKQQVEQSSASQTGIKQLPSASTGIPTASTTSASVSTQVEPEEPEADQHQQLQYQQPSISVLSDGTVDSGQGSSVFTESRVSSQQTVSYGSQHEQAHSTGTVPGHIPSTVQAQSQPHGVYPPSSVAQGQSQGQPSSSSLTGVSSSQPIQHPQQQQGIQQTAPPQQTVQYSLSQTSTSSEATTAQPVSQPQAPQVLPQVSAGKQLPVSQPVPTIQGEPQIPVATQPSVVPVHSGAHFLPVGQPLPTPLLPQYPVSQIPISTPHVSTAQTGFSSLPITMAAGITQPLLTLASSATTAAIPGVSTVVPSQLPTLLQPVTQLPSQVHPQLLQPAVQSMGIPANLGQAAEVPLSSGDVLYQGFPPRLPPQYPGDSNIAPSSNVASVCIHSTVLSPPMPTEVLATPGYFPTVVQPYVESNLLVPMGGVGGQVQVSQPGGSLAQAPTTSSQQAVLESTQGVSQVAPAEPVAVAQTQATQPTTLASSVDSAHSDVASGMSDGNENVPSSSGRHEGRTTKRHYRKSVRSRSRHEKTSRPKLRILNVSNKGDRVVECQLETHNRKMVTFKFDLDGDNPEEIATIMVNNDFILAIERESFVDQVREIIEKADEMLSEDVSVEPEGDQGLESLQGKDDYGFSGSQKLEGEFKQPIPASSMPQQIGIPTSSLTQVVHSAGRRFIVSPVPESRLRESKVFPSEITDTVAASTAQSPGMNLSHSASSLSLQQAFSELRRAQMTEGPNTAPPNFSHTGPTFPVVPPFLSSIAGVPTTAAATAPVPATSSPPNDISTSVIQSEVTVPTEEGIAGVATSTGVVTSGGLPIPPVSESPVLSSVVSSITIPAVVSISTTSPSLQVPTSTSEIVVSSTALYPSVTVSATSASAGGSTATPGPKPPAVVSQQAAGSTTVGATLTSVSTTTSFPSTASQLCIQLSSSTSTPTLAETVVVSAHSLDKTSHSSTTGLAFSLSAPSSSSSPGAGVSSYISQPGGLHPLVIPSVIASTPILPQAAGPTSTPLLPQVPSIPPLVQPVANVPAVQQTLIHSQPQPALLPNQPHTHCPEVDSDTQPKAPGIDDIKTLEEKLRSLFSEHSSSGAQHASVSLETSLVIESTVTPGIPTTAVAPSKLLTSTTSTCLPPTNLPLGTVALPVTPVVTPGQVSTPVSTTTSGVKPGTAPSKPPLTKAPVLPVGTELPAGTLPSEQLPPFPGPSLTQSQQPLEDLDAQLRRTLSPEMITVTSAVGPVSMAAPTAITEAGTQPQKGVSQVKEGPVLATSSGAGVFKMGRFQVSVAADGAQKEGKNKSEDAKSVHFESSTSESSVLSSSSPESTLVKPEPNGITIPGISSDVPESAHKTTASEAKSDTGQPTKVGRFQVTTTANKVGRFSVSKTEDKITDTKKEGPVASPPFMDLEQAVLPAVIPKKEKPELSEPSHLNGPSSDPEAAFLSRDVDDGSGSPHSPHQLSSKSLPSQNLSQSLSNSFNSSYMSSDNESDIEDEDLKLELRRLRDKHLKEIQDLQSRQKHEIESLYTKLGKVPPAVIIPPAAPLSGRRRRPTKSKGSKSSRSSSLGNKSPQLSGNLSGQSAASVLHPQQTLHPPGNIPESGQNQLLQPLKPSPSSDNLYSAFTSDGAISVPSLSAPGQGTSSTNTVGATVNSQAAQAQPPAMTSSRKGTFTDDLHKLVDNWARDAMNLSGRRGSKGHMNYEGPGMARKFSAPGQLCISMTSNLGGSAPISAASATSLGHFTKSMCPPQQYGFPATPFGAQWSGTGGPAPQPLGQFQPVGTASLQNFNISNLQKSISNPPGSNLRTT
Assay: DSF 100 kinase selectivity screen;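 note: compound tested at 20 µM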
Assay type: binding
Settings: Protein WNK1; DSF; average of three replicates
Parameter class (string): assigned from measured dTm. Ranges: one (below -0.03 K), two (-0.03 K to below 0.5 K), three (0.5 K or more)

Check out these entries, answers already filled in.
> print(dat)
                                   compound  category.label
1  O=C(Nc1cccc(-c2c[nH]c3ncnc(N4CCOCC4)c23)c1)c1cccn(-c2ccc(F)cc2)c1=O             two
2  CN[C@@H]1C[C@H]2O[C@@](C)([C@@H]1OC)n1c3ccccc3c3c4c(c5c6ccccc6n2c5c31)C(=O)NC4           three
3  COc1ccc(NC(=O)C2(C(=O)Nc3cccc(-c4c[nH]c5ncnc(N6CCOCC6)c45)c3)CC2)cc1             two

Field: class (dTm) — entry: COc1cc2c(Oc3ccc(NC(=O)C4(C(=O)Nc5ccc(F)cc5)CC4)cc3F)ccnc2cc1OCCCN1CCOCC1 [Foretinib, reference compound]
three

Band assignment needed for O=C(Nc1cccc(-c2c[nH]c3ncnc(N4CCOCC4)c23)c1)C1(C(=O)Nc2ccc(F)c(F)c2)CC1 please.
three

Category of Cc1cc(NC(=O)C2(C(=O)Nc3cccc(-c4c[nH]c5ncnc(N6CCOCC6)c45)c3)CC2)ccc1F :
two

---

Please provide measured dTm for the entries that follow.
Biological target: ~100 representative kinases (Homo sapiens)
Construct: Recombinant protein kinase domains with a concentration of 2 μM
Experiment: DSF 100 kinase selectivity screen;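 note: compound tested at 20 µM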
Format: binding
Settings: protein MARK3; average of three replicates
One number for each entry, in K.

Hello, I would appreciate it if you could give dTm for each entry below.
1. CNC(=O)c1cc(Oc2ccc(NC(=O)Nc3cc(C(C)(C)C)nn3-c3ccc4ncccc4c3)c(F)c2)ccn1 [Rebastinib, reference compound]
2. O=C(Nc1cc(F)cc(Br)c1)C1(C(=O)Nc2cccc(-c3c[nH]c4ncnc(N5CCOCC5)c34)c2)CC1
3. COc1cc(C(=O)N2CCOCC2)c(F)cc1Nc1nc(N(C)C)c2c(Cl)c[nH]c2n1
4. C[C@@H]1CN(c2cc(-c3n[nH]c4ccc(OC5(C)CC5)cc34)ncn2)C[C@H](C)O1

1: 0.56; 2: 3.05; 3: -1.24; 4: -1.07

---

Biological target: ~100 representative kinases (Homo sapiens)
Construct: Recombinant protein kinase domains with a concentration of 2 μM
Experiment: DSF 100 kinase selectivity screen;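 note: compound tested at 20 µM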
Format: binding
Details: Protein EPHA7; average of three replicates
For each of the compounds below, state its dTm.
Give bare numbers, in K.

Examples with their reported dTm follow.
> print(dat)
                                 smiles.str  value.unit  result
1  O=C(Nc1ccc(F)cc1)C1(C(=O)Nc2cccc(-c3c[nH]c4ncnc(N5CCOCC5)c34)c2)CC1           K   -1.78
2  CN[C@@H]1C[C@H]2O[C@@](C)([C@@H]1OC)n1c3ccccc3c3c4c(c5c6ccccc6n2c5c31)C(=O)NC4           K   12.09
3  O=C(Nc1cc(F)cc(Br)c1)C1(C(=O)Nc2cccc(-c3c[nH]c4ncnc(N5CCOCC5)c34)c2)CC1           K    2.33
4  Cc1ccc(-n2nc(C(C)(C)C)cc2NC(=O)Nc2cccc(-c3c[nH]c4ncnc(N5CCOCC5)c34)c2)cc1           K    2.68
5  O=C(Nc1cccc(-c2c[nH]c3ncnc(N4CCOCC4)c23)c1)C1(C(=O)Nc2ccc(F)c(Cl)c2)CC1           K    0.26
6  CC(C)(C)c1cccc(NC(=O)C2(C(=O)Nc3cccc(-c4c[nH]c5ncnc(N6CCOCC6)c45)c3)CC2)c1           K    2.40

Quick batch: dTm for everything below.
1. Cc1ccc(C(=O)Nc2ccc(CN3CCN(C)CC3)c(C(F)(F)F)c2)cc1C#Cc1c[nH]c2ncnc(N3CCOCC3)c12
2. Cc1cc(NC(=O)C2(C(=O)Nc3ccc(F)cc3)CC2)cc(-c2c[nH]c3ncnc(N4CCOCC4)c23)c1
3. CCc1ccc(NC(=O)C2(C(=O)Nc3cccc(-c4c[nH]c5ncnc(N6CCOCC6)c45)c3)CC2)cc1

1: 1.10; 2: 1.69; 3: -2.17
